System: wheat germ agglutinin (Triticum aestivum), Alexa647-labelled
ASSAY_METHOD_TEXT: Alexa647-WGA lectin binding to printed small molecules – biochemical, small-molecule microarray, 635/667 nm fluorescence, artefact control for SMM control-protein annotation, profiling panel (AID 1140);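 further: score merges 667 nm feature emission with signal to noise over triplicate slides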
ASSAY_SETUP: WGA-A647 binding, 635 nm fluorescence, higher = more signal
We use 0.4 as the dividing line for composite z-score: on or above the line is yes (1), below is no (0).

Examples with answers:
C=CCNC(=O)[C@H]1[C@@H]2C(=O)O[C@@H](c3ccccc3)[C@@H](c3ccccc3)N2[C@@H](c2ccc(O)cc2)[C@]12C(=O)N(C(=O)OCCOC)c1ccc(C#CC3(O)CCCCCC3)cc12 :: yes (1)
CCOC(=O)C1=CC[C@@H](c2ccccc2)N(S(=O)(=O)c2ccc(C)cc2)[C@H]1C=C(C)C :: yes (1)
CCCCC(O)C1C=CC2C(=O)N(Cc3ccccc3)C(=O)C2N1n1cnnc1 (configuration not stated) :: yes (1)
Cc1ccc(S[C@]2(C(=O)O)CC(=O)N(C3CCCCC3)[C@@H]2c2ccc(CO)cc2)cc1 :: yes (1)

[in] API: above_or_equal(metric=composite z-score, cutoff=0.4) for item `CN(C)CCCC[C@@H]1NC(=O)[C@H]2C[C@@H](C(=O)NCCCCCCNC(=O)CS)[C@@H](c3ccc(O)cc3)N2C1=O`
[out] no (0)

[in] API: above_or_equal(metric=composite z-score, cutoff=0.4) for item `CN(C)C(=O)[C@@]1(CCC(=O)OC(C)(C)C)N=C(c2ccc(OCCCO)cc2)O[C@H]1c1ccccc1N=[N+]=[N-]`
[out] yes (1)

[in] API: above_or_equal(metric=composite z-score, cutoff=0.4) for item `[N-]=[N+]=NCc1ccccc1[C@H]1OC(c2ccc(OCCCO)cc2)=N[C@@]1(Cc1ccccc1N=[N+]=[N-])C(=O)NCCN1CCOCC1`
[out] yes (1)

[in] API: above_or_equal(metric=composite z-score, cutoff=0.4) for item CC(C)CCC[C@@H](C)[C@H]1CC[C@@]2(C)C3=C(CC[C@]12C)[C@@]1(C)CC[C@H](OC(=O)C(C)(C)C)C(C)(C)C1CC3 (some centres not stated)
[out] no (0)

[in] API: above_or_equal(metric=composite z-score, cutoff=0.4) for item `O=C(CS)NCCCCCNC(=O)[C@@H]1C[C@@H]2C(=O)N3CCC[C@H]3C(=O)N2[C@@H]1c1ccc(O)cc1`
[out] no (0)

====

z-score reference
ASSAY_METHOD_TEXT: JC-1 mitochondrial signal, unstimulated adipocytes – cell-based, JC-1 fluorescence, 3T3-L1 adipocytes, 24 h, 100 nL compound, profiling panel (AID 1168); further: test concentration not given here
ASSAY_SETUP: JC-1 mitochondrial fluorescence, higher = more signal, called active from +8 up or from −8 down
Reply with the value as a number alone.

Solved cases below.
COCCOC(=O)N1C(=O)[C@@]2(c3cc(C#Cc4ccc(OC)cc4)ccc31)[C@H](C(=O)N1CCc3cc(OC)c(OC)cc3C1)[C@H]1C(=O)O[C@H](c3ccccc3)[C@H](c3ccccc3)N1[C@@H]2c1ccc(OCCO)cc1 :: 2.31
[N-]=[N+]=NCc1ccccc1[C@H]1OC(c2ccc(OCCCO)cc2)=N[C@@]1(Cc1ccccc1N=[N+]=[N-])C(=O)N1CCCCC1 :: 0.0871
COCCOC(=O)N1C(=O)[C@@]2(c3cc(C#CCC(C(=O)OC)C(=O)OC)ccc31)[C@H](c1ccc(OCCO)cc1)N1[C@H](c3ccccc3)[C@H](c3ccccc3)OC(=O)[C@H]1[C@@H]2C(N)=O :: 1.3

Query molecule follows.
Entry under test: `C=CC[C@@]1(C(=O)NCCN2CCOCC2)N=C(c2ccc(OCCCO)cc2)O[C@@H]1c1ccccc1` . Its z-score was -0.672
